Data provenance is ChEMBL document CHEMBL6087385.

test: Volume of distribution in Cynomolgus monkey at 1 mg/kg, iv by reverse phase chromatography; type: ADME, organism-based, Macaca fascicularis; conditions: in vivo
measure: Vd (L/kg)
Form entry: value (L/kg) — number only.

input: Which Vd is listed for C[C@@]1(O)[C@H](O)[C@@H](CO)O[C@H]1c1coc2c(N)ncnc12 ?
output: 8.67

----------
assay: Cmax in Sprague-Dawley rat at 10 mg/kg, po by reverse phase chromatography; type: ADME, organism-based; settings: in vivo
measure: Cmax (ng/mL)
Form entry: value (ng/mL) — number only.

input: Which Cmax is listed for C[C@@]1(O)[C@H](O)[C@@H](CO)O[C@H]1c1coc2c(N)ncnc12 ?
output: 1180
